# PROTOCOL_SUMMARY: Log P by HPLC on reversed phase columns (EEC directive 79/831 Annex V.A8; methods [a], [b], [c])
# Format: physicochemical
MEASURED_PROPERTY: LogP

COMPOUND	MEASURED_PROPERTY	VALUE
N#Cc1cncn1CC(O)(CC1CC1)c1ccc(Cl)c(Cl)c1 (stereo not shown)	LogP	2.78^[a]
OC(Cn1cncc1Cl)c1ccc(Oc2ccc(Cl)cc2)cc1 (stereo not shown)	LogP	2.18^[a]
OC(Cn1cncc1F)c1ccc(Oc2ccc(Cl)cc2)cc1C(F)(F)F (stereo not shown)	LogP	2.39^[a]
NC(=S)c1cncn1CC(O)(CC1CC1)c1ccc(F)cc1F (stereo not shown)	LogP	1.53^[a]
CCCC(C)C=CC(O)(Cn1cncc1C#N)C1(Cl)CC1 (stereo not shown)	LogP	3.41^[a]

Output LogP of OC(Cn1cncc1Cl)c1ccc(Oc2ccc(Br)cc2)cc1Cl (stereo not shown) 2.75^[a]

Output LogP of N#Cc1cncn1CC(O)(c1cc(Cl)ccc1Cl)C1(F)CC1 (stereo not shown) 2.39^[a]

Output LogP of CC(C)(C)CC(O)(Cn1cncc1C#N)c1ccc(F)cc1 (stereo not shown) 2.90^[a]

Output LogP of CC(O)(Cn1cncc1Br)c1ccc(Oc2ccc(Br)cc2)cc1Br (stereo not shown) 3.06^[a]

Output LogP of N#Cc1cncn1CC(O)(c1ccc(C#CC2CC2)cc1F)C1(F)CC1 (stereo not shown) 2.92^[a]
